test system: SNB-75; experiment: NCI tumour cell line growth inhibition, 48 h
The source made the active and inactive calls. Cut-off read from the data, not from the text of the source: active = GI50 up to about 1.1 µM and inactive = higher.
For each record, write down the corresponding GI50.

Examples with their reported GI50 follow.
| smiles-input | metric-name | measured-value |
| --- | --- | --- |
| CCN(CC)CCOC(c1ccccc1)c1ccccc1.CCOC(=O)Nc1ccc(S(=O)(=O)OC)cc1.CCOC(=O)Nc1ccc(S(=O)(=O)OC)cc1.Nc1ccc(C(=O)O)c(O)c1 | GI50 | > 100 µM (inactive) |
| N#Cc1cc2c(cc1Cl)Sc1nnc(Nc3ccccc3)n1S2(=O)=O | GI50 | 3.4 µM (inactive) |
| CCc1nnc(-n2c(C)nc3cc(Cl)ccc3c2=O)s1 | GI50 | 34.9 µM (inactive) |
| Cc1cc(NC(=O)C(=O)Cc2nc3ccccc3s2)ccc1Cl | GI50 | > 100 µM (inactive) |

From here, focus on the item given below.
Give GI50 (SNB-75) of the following compound: `CCN(CCC#N)C(=O)Nc1ccccc1`
93.1 µM (inactive)

* * *

tested on: SK-OV-3; test: NCI tumour cell line growth inhibition, 48 h
Active and inactive are the calls of the source. Rule as the data show it: active = GI50 up to about 1.1 µM and inactive = higher.
Kindly state GI50 for each of the entries shown.

Example cases with answers are listed next.
| compound | GI50 |
| --- | --- |
| CN(C)CCC(C(=O)C(C)(C)C)c1ccccn1 (stereo unspecified) | > 100 µM (inactive) |
| Nc1cc2c(cc1[N+](=O)[O-])[nH]c1c(-c3ccccc3)nccc12 | 10.9 µM (inactive) |
| Cc1cc(=O)oc2c(C3=NN(C=O)C(c4ccccc4)C3)c(O)ccc12 (stereo unspecified) | 20.2 µM (inactive) |
| COC(=O)/C=C\[C@H]1[C@H](C)N1S(=O)(=O)c1ccc(C)cc1 (stereo partly specified) | > 100 µM (inactive) |
| Clc1cccc(-c2sc(-c3ccsc3)cc2Cc2ccsc2)c1 | > 10 µM (inactive) |
| CCC1C2Cc3ccc(O)cc3C1(CC)CCN2C (stereo unspecified) | > 100 µM (inactive) |
| N#CC1=C(N)N(/N=C/c2ccccc2)C(c2ccccc2)C1(C#N)C#N (stereo unspecified) | 12.6 µM (inactive) |
| Cc1ccc(NC(=O)C2C(=O)N(c3ccc(C)c(C)c3)C(=O)C2N=N)cc1C (stereo unspecified) | > 100 µM (inactive) |
| COc1ccc2[nH]c3c(C)c4cc[n+](C)cc4c(C)c3c2c1 | 6.78 µM (inactive) |
| O=c1cc(N2CCCC2)[nH]c(=O)n1-c1cccc(Cl)c1 | > 100 µM (inactive) |

From here, focus on the item given below.
Given the entry `O=c1c2ccccc2sc2nc(O)nn12` , report its measured GI50.
> 100 µM (inactive)

* * *

Please go through the items and note down their GI50.
test system: UO-31; assay: NCI tumour cell line growth inhibition, 48 h
Active and inactive are the calls of the source. No stated cut-off is given here; in the data, active = GI50 up to about 1.1 µM and inactive = higher.

| molecule | measured-value |
| --- | --- |
| Cc1c(-c2ccccc2)[nH]c2ccc(Cl)cc2c1=O | 0.252 µM (active) |

# map each molecule to its GI50
1. COc1ccc2c(c1)[nH]c1c(/C=C/c3ccccc3)nccc12
2. CCN(CCO)CCNc1ccc(C)c2sc3ccccc3c(=O)c12

1: 10.4 µM (inactive); 2: 5.41 µM (inactive)

Parameters: items (list). Returns: GI50 for each item.
1. CCOC(=O)CC1CCN(C(=O)c2ccccc2)C2Cc3c([nH]c4ccccc34)C12C[N+](=O)[O-] (configuration not stated)
2. NC(CO)c1ccccc1 (configuration not stated)
3. Cc1ccc(/C=C2\Cc3cc(C)c(C)cc3C2=O)c(C(=O)O)c1
4. COC(=O)c1n[nH]c(C)c1/N=N/N(C)CCC#N
5. C/C=C/CP(=O)(c1ccccc1)c1ccccc1

48.3 µM (inactive)
> 100 µM (inactive)
29 µM (inactive)
0.301 µM (active)
> 100 µM (inactive)

Hi! Can you tell me GI50 for each of these molecules?
1. O=C1NC(N2CCOCC2)=N/C1=C\c1ccccc1
2. C=CCC1(O)CC(n2cc(C)c(=O)[nH]c2=O)OC1CO[Si](C)(C)C(C)(C)C (configuration not stated)
3. COc1ccc2c3c([nH]c2c1[N+](=O)[O-])C(C)N(C)CC3 (configuration not stated)
4. O=C(O)c1ccccc1C(=O)Nn1cnnc1

["> 100 µM (inactive)", "42.4 µM (inactive)", "76.2 µM (inactive)", "> 100 µM (inactive)"]

* * *

system: COLO 205; assay: NCI tumour cell line growth inhibition, 48 h
Calls of active or inactive are those of the source. No stated cut-off is given here; in the data, active = GI50 up to about 1.1 µM and inactive = higher.
Permitted responses: active, inactive

Check out these entries, answers already filled in.
| compound | category-label |
| --- | --- |
| CC1(C)CCC(C)(C)c2cc(NC(=O)c3ccc(C(=O)O)cc3)ccc21 [TAMIBAROTENE] | inactive |
| C=CCNc1ccc(C)cc1 | inactive |
| O=C1CSC2(CC(/C=C/c3ccccc3Br)=NN2c2cccc(S(=O)(=O)O)c2)N1c1nc2ccccc2s1 (stereo unspecified) | inactive |
| CC(=O)Nc1c2sscc-2n(C)c1=O [THIOLUTIN] | active |
| CC12CCC(Br)C(C)(C)C1CC=C1C(=O)OCC1O2 (stereo unspecified) | inactive |

Each compound tested received a call. Report the one for `CCOC(=O)/C=C1\c2ccccc2C(=O)N1CC(=O)OCC` .
inactive

Follow-up entry: `CNCCCn1c2ccccc2c2c3c(c(-c4ccsc4)cc21)C(=O)NC3=O`
inactive

Please do the same for `CCOC(=O)C1(C(=O)OCC)COS(=O)OC1` as well.
inactive

Also check COCC1OC(S(=O)(=O)c2ccccc2)C(O)C(OC)C1OC (stereo unspecified)
inactive

Also, `CCCCOC(=O)NC(=O)c1cn(CCCOC(=O)CCCCCCCCC(=O)OCCCn2cc(C(=O)NC(=O)OCCCC)c(=O)n(C)c2=O)c(=O)n(C)c1=O` please.
inactive

Query `O=C1NC(N2CCOCC2)=N/C1=C\c1ccccc1` next
inactive

* * *

test system: SF-295; assay: NCI tumour cell line growth inhibition, 48 h
Active and inactive are the calls of the source. Cut-off read from the data, not from the text of the source: active = GI50 up to about 1.1 µM and inactive = higher.
Outcome field: choose from true (1) for active, false (0) for inactive

Known results for molecules:
| molecule | category-label |
| --- | --- |
| O=C(CSC1=NCCN1)c1ccccc1 | false (0) |
| CN(C)C(=O)c1nnsc1NN=O | false (0) |
| COc1ccc2c3c([nH]c2c1[N+](=O)[O-])C(C)N(C)CC3 (stereo not given) | false (0) |
| O=C(O)c1c2c(c(C(=O)O)c3ccccc13)-c1ccccc1-2 | false (0) |
| Cc1ccc(NC(=O)C2C(=O)N(c3ccc(C)c(C)c3)C(=O)C2N=N)cc1C (stereo not given) | false (0) |
| Cc1cccc(/N=C2\NC(=O)C(CC(=O)Nc3ccc(C)cc3C)S2)c1 (stereo not given) | false (0) |
| O=[N+]([O-])[C@@H]1C2C=CC(C2)[C@H]1Cl (stereo not given in full) | false (0) |
| COc1cc2cc(C(=O)Nc3cc4n(n3)-c3ccccc3C4)[nH]c2c(OC)c1OC | false (0) |

Tell me the recorded outcome of this test for CCOC1=C2C(=O)OC(=O)C2C2CCCCC2=C1 (stereo not given) .
false (0)

Consider next the molecule CC(C)[C@]12O[C@H]1[C@@H]1O[C@]13[C@]1(O[C@H]1C[C@H]1C4=C(CC[C@@]13C)C(=O)OC4)[C@@H]2O [TRIPTOLIDE] in the same way.
true (1)

* * *

system: DU-145; assay: NCI tumour cell line growth inhibition, 48 h
Activity calls are given as the source filed them. No stated cut-off is given here; in the data, active = GI50 up to about 1.1 µM and inactive = higher.
metric-name: GI50

Would you please look over these solved cases?
| molecule | measured-value |
| --- | --- |
| CC(O)(C#N)CC(O)(C(F)(F)Cl)C(F)(F)Cl (stereo unspecified) | > 10 µM (inactive) |
| O=S1(=O)N=C(SCc2ccccc2)N(c2ccccc2)c2ccncc21 | 30.5 µM (inactive) |
| COc1cc(C2c3cc(O)c(OC)cc3C3OCC2C3CO)ccc1O (stereo unspecified) | > 100 µM (inactive) |
| CCN(CCO)CCNc1ccc(C)c2sc3ccccc3c(=O)c12 | 10.2 µM (inactive) |
| O=C(CSc1nc(O)nc2[nH]cnc12)Nc1ccccc1 | > 100 µM (inactive) |

Now consider the entry below.
Give the measured GI50 of `COc1cc2cc(C(=O)Nc3cc4n(n3)-c3ccccc3C4)[nH]c2c(OC)c1OC` .
6.73 µM (inactive)

* * *

system: MOLT-4; assay: NCI tumour cell line growth inhibition, 48 h
Calls of active or inactive are those of the source. No stated cut-off is given here; in the data, active = GI50 up to about 1.1 µM and inactive = higher.
metric-name: GI50

Here are 2 compounds together with their reported answers.
| compound | measured-value |
| --- | --- |
| O=[N+]([O-])C(Cl)=C/C(=C(\Cl)SCc1ccccc1)[N+](=O)[O-] | 17.7 µM (inactive) |
| Cc1ccc(C)c(C(=N)c2ccccc2Cc2ccccc2)c1 | 15.1 µM (inactive) |

Working through the 7 compounds below one at a time, give GI50 for each.
1. CC(=O)[C@@]1(C)CC2(CCN(C)CC2)OC1C (stereo partly specified)
2. OCCCCCNc1c2ccccc2nc2ccccc12
3. ClCCCCCc1c2nc(c(CCCCCCl)c3ccc([nH]3)c(CCCCCCl)c3nc(c(CCCCCCl)c4ccc1[nH]4)C=C3)C=C2
4. Cc1n[nH]c(=S)n1/N=C/c1ccc(-c2ccc(Cl)cc2)o1
5. CC#CC#C/C=C1/O[C@]2(CCC(OC(=O)CC(C)C)CO2)[C@@H]2O[C@H]12 (stereo partly specified)
6. O=C1CC(c2ccccc2)NCN1 (stereo unspecified)
7. CC(C)c1cc2c(c(O)c1O)[C@@]1(C(=O)O)CCCC(C)(C)[C@@H]1CC2

1. > 100 µM (inactive)
2. 2.4 µM (inactive)
3. > 100 µM (inactive)
4. > 100 µM (inactive)
5. 18.7 µM (inactive)
6. > 100 µM (inactive)
7. 11.8 µM (inactive)

Look at each compound and report its GI50.
1. CCNCCC1(CC)C(=O)NC(=O)NC1=O
2. O=C1CSSCC(=O)Nc2ccccc2N1

1: > 100 µM (inactive); 2: 55.6 µM (inactive)
